test_target: human GLP1R (Homo sapiens)
Construct: expressed in transfected cells
protocol: cAMP activity assay (HitHunter cAMP XS), cells expressing human GLP1R
Assay type: cell-based
protocol_conditions: Table 2; cAMP production; read-out: EC50 hGLP1R
Method: Peptides were dissolved in 100% DMSO and serially diluted to generate 10 point titrations. The peptide solutions were then transferred into 384-well assay plates (150 nL/well). Assay ready frozen cells expressing human GLP1R or human GCGR were suspended in growth media consisting of DMEM medium (GIBCO), 10% FBS (GIBCO), 1×NEAA(GIBCO), 1× P/S (GIBCO), 10 ug/ml Blasticidin (GIBCO) and 200 μg/mL Hygromycin (GIBCO). […] Luminescence was measured using an EnVision Multilabel plate reader (Perkin Elmer). […]
No end group written: not given here.
property_label: EC50 (nM)
Just the number please, in nM, no unit attached.

State the measured EC50 (human GLP1R (Homo sapiens)) of HSQGTFTSDYSKYLDSRMAYDFVQWLMNT-NH2 [PD56]
0.05

Please report EC50 with human GLP1R (Homo sapiens) for item HSQGTFTSDYSKYLDELRAYDFVQWLMNT-NH2 [PD27] .
0.03

Under human GLP1R (Homo sapiens), report EC50 for H-HSQGTFTSDYSKYLDSIRAQDFVQWLMDT-NH2 [PD36]
0.06

Look up and report measured EC50 (human GLP1R (Homo sapiens)) for the following substance: H-HSQGTFTSDYSKYLDSLMAQDFVQWLMST-NH2 [PD22]
0.03

Enter recorded EC50 with human GLP1R (Homo sapiens) for H-HSQGTFTSDYSKYLDSRRAHDFVQWLLNT-NH2 [PD29] here.
0.02

State EC50 on human GLP1R (Homo sapiens). Entry: H-HSQGIFFSDYSKYLDSRRAQDFVQWLMNT-NH2 [PD52]
0.02

Report value only: EC50, human GLP1R (Homo sapiens), H-HSQGTFFSDYSKYLDSRRAQDFVQWLLET-NH2 [PD58]
0.02

# return EC50 for HSQGTFTSDYSKYLDSKRAHDFVQWLLNT-NH2 [PD45] , test system: human GLP1R (Homo sapiens)
0.02

---

test_target: human GLP1R (Homo sapiens, UniProt P43220)
Construct: expressed in transfected cells
Sequence (P43220 24-463): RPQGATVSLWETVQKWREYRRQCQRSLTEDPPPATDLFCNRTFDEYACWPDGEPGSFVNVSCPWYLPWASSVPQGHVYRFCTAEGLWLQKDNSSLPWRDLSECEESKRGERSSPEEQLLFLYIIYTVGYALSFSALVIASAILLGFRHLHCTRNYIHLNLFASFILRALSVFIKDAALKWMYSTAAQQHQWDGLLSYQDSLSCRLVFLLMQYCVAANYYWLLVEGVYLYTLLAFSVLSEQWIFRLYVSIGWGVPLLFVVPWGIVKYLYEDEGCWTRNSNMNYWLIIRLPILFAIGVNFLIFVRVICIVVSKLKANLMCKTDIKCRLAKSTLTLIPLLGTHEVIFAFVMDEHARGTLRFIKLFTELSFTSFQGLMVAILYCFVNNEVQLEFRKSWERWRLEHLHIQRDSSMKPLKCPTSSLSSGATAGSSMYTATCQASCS
protocol: cAMP activity assay (HitHunter cAMP XS), cells expressing human GLP1R
Format: cell-based
protocol_conditions: Table 7; lipidated analogs vs parental peptides; read-out: EC50 hGLP1
No end group written: not given here.
property_label: EC50

Please give measured EC50 of the following entry: HSQGTFTSDYSKYLDNKRAQDFVQWLMQT-NH2 [PD37]
50 pM
